Molecular target: T1, LASV GP1 subunit protein (Lassa virus, UniProt P08669 59-259)
T1 sequence: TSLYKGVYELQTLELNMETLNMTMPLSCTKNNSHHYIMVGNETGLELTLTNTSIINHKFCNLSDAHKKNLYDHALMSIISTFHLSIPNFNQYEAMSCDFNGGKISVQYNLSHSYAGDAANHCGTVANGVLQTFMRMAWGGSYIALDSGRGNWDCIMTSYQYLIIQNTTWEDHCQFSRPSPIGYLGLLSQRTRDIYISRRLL
Assay: BLI
result-type: Kd (µM)

shark VNAR A1 (VNAR) VNAR: ARVDQTPQTITKETGESLTINCVPPDSNCALADTYWYRKKSGSTNEESISKGGRYVPTVNSGSKSFILRINDLRVADSGTYRCKVSCYAAAYYGQQLERLYDVYGGGTAVTVN	0.0186
shark VNAR B8 (VNAR) VNAR: ARVDQTPQTVTKETGESLTINCVLRDSNCALPSTYWYRKKSGSTNEENISKGGRYVETVNSGSKSFSLRINDLRPEDSGTYRCKVHGLPLDCIPARGLELNWREDVNGGGTAVTVN	0.0159
shark VNAR A10 (VNAR) ARVDQTPQTITKETGESLTITCILRDSQCALSPTYWYHKKSGSTKPERIYKGGRYVETVNSGSKSFSLRINDLTVEDSGTFFCKVSGWYAYSCRLEPDGYYDVYGGGTVVTVN	0.0227
camel VHH D5 (VHH) VHH: AWQLVESGGGSVQPGGSLTLTCQASKSTFSTSGMRWERQAQGKGVEFVADISSDSTRKWYSDSVKGRFTISRSNWWRTVTLQMNDLKPEDTARYYCKDLESHHLRGQGTQVTVSS	0.0208
shark VNAR B10 (VNAR) VNAR: ARVDQTPQTITKETGESLTINCVLRDSNCPLSSTFWYRADAGSLNEENISKGGRYVETVNSGSKSFSLRINDLTTEDSGTYRCKVAGLPLDCIPARGLELNWREDVYGGGTAVTVN	0.0786
